Here, each record is paired with measured I data.
target: UniProtKB P0DMS8; assay: Percent inhibition against human adenosine A3 receptor expressed in CHO cells using [125I]AB-MECA at 1 uM; type: cell-based
Sequence (P0DMS8 whole entry): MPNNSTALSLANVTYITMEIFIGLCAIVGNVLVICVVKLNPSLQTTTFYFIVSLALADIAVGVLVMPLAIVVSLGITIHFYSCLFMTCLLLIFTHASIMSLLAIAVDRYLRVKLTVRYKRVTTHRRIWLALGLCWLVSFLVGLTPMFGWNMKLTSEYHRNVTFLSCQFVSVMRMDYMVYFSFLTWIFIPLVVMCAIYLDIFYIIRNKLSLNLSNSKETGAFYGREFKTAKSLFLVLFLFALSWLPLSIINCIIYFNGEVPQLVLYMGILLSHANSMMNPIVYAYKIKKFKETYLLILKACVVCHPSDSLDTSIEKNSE
result type: I (%)

smiles notation: O=c1[nH]c2c([N+](=O)[O-])cccc2n2c(=O)n(-c3ccc(O)cc3)nc12
u: %
measured value: 21

smiles notation: Nc1nc2ccccc2n2c(=O)n(-c3ccc([N+](=O)[O-])cc3)nc12
u: %
measured value: 28

smiles notation: Nc1nc2c([N+](=O)[O-])cccc2n2c(=O)n(-c3ccc([N+](=O)[O-])cc3)nc12
u: %
measured value: 30

smiles notation: CC(=O)Oc1ccc(-n2nc3c(=O)[nH]c4c([N+](=O)[O-])cccc4n3c2=O)cc1
u: %
measured value: 20

smiles notation: O=c1[nH]c2c([N+](=O)[O-])cccc2n2c(=O)n(-c3ccc([N+](=O)[O-])cc3)nc12
u: %
measured value: 24

smiles notation: Nc1nc2c([N+](=O)[O-])cccc2n2c(=O)n(-c3ccc(O)cc3)nc12
u: %
measured value: 45

smiles notation: Nc1cccc2c1[nH]c(=O)c1nn(-c3ccc(O)cc3)c(=O)n12
u: %
measured value: 39

###

List of log10 Ki tested on Adenosine receptor A2a (Bos taurus).
result type: log10 Ki (log10 of the value in µM)

smiles notation: Nc1cccc2c1nc(N)c1nn(-c3ccc(O)cc3)c(=O)n12
assay system: Adenosine receptor A2a (Bos taurus)
log10 Ki: -0.74
--
smiles notation: CC(=O)Oc1ccc(-n2nc3c(=O)[nH]c4ccccc4n3c2=O)cc1
assay system: Adenosine receptor A2a (Bos taurus)
log10 Ki: 0.99
--
smiles notation: COc1ccc(-n2nc3c(N)nc4c(N)cccc4n3c2=O)cc1
assay system: Adenosine receptor A2a (Bos taurus)
log10 Ki: 0.02
--
smiles notation: Nc1nc2c([N+](=O)[O-])cccc2n2c(=O)n(-c3ccc(O)cc3)nc12
assay system: Adenosine receptor A2a (Bos taurus)
log10 Ki: 0.20
--
smiles notation: Nc1ccc(-n2nc3c(N)nc4ccccc4n3c2=O)cc1
assay system: Adenosine receptor A2a (Bos taurus)
log10 Ki: -2.44
--
smiles notation: CCOc1ccc(-n2nc3c(N)nc4ccccc4n3c2=O)cc1
assay system: Adenosine receptor A2a (Bos taurus)
log10 Ki: 1.11
--
smiles notation: Nc1nc2ccccc2n2c(=O)n(-c3ccc(O)cc3)nc12
assay system: Adenosine receptor A2a (Bos taurus)
log10 Ki: -1.10

###

target: Adenosine receptor A1 (Homo sapiens, UniProt P30542); assay: biochemical
Sequence (P30542 whole entry): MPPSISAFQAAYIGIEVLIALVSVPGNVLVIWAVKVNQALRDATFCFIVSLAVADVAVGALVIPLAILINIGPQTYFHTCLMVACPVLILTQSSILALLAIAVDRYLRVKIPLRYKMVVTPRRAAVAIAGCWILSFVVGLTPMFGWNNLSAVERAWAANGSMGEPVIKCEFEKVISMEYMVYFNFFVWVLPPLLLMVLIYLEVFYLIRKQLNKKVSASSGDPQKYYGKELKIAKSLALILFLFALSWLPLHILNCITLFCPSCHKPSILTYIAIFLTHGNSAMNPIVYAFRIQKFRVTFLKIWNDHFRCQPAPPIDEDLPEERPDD
Description: Binding affinity against human adenosine A1 receptor expressed in CHO cells using [3H]CHA
pKi: −log10 of the molar value.
Here, each record is paired with measured pKi data.
result type: pKi

smiles notation: COc1ccc(-n2nc3c(N)nc4ccccc4n3c2=O)cc1
assay system: Adenosine receptor A1 (Homo sapiens, UniProt P30542)
measured value: 7.16

smiles notation: CC(=O)Oc1ccc(-n2nc3c(=O)[nH]c4ccccc4n3c2=O)cc1
assay system: Adenosine receptor A1 (Homo sapiens, UniProt P30542)
measured value: 6.49

smiles notation: Nc1nc2c([N+](=O)[O-])cccc2n2c(=O)n(-c3ccccc3)nc12
assay system: Adenosine receptor A1 (Homo sapiens, UniProt P30542)
measured value: 6.06

smiles notation: O=c1[nH]c2ccccc2n2c(=O)n(-c3ccc(O)cc3)nc12
assay system: Adenosine receptor A1 (Homo sapiens, UniProt P30542)
measured value: 6.77

Data origin, for the record: ChEMBL document CHEMBL1148352
